# Tested on: RPMI8226, a multiple myeloma cell line
# PROTOCOL_SUMMARY: In vitro potency (WST-8 cell viability assay), RPMI8226
# Assay type: cell-based
# SETTINGS: Homo sapiens, RPMI-8226, read-out: IC50 RPMI8226
# Method: General Procedure Used: Samples of unconjugated free drug compounds or drug conjugates were added to 96-well flat bottomed tissue culture plates and titrated using serial dilutions to cover the desired molar range. […] At the end of the incubation period cytotoxic potencies were then assessed using a WST-8 based cell viability assay and surviving cells were measured by developing with WST-8 (2-7 hours). […]
PARAMETER: pIC50
Numbers only, as −log10 of the molar value.

Query: Recorded pIC50 for COc1cc2c(cc1OCc1cccc(COc3cc4c(cc3OC)C(=O)N3c5ccccc5C[C@H]3CN4)c1)NC[C@@H]1Cc3ccccc3N1C2=O [Compound 29c] , please?
Response: 9.80

---

# Test system: HEL92.1.7, an erythroleukemia cell line
# PROTOCOL_SUMMARY: In vitro potency (WST-8 cell viability assay), HEL92.1.7
# Format: cell-based
# SETTINGS: Homo sapiens, HEL 92.1.7; free drug; read-out: IC50 HEL92.1.7
// classify: if (IC50 < 0.007 nM) true (1) else false (0)

Solved entries (count: 3):
Query: IC50 strictly < 0.007 nM for this compound? COc1cc2c(cc1OCc1cc(COc3cc4c(cc3OC)C(=O)N3c5ccccc5C[C@H]3CN4)cc(CSCC(C)(C)SSC)c1)NC[C@@H]1Cc3ccccc3N1C2=O [Compound 27f]
Response: false (0)

Query: IC50 strictly < 0.007 nM for this compound? COc1cc2c(cc1OCc1cccc(COc3cc4c(cc3OC)C(=O)N3c5ccccc5C[C@H]3C=N4)c1)N=C[C@@H]1Cc3ccccc3N1C2=O [Compound 29a]
Response: true (1)

Query: IC50 strictly < 0.007 nM for this compound? COc1cc2c(cc1OCc1cc(COc3cc4c(cc3OC)C(=O)N3c5ccccc5C[C@H]3CN4)cc(CSCC(C)(C)SSC)c1)N=C[C@@H]1Cc3ccccc3N1C2=O [Compound 27e]
Response: false (0)

Then there is this compound:
Query: IC50 strictly < 0.007 nM for this compound? COc1cc2c(cc1OCc1cc(COc3cc4c(cc3OC)C(=O)N3c5ccccc5C[C@H]3C=N4)cc(CSCC(C)(C)SSC)c1)N=C[C@@H]1Cc3ccccc3N1C2=O [Compound 27d]
Response: false (0)

Numbers sourced from patent USRE49918E1.
